Test system: HCT116 WT cells
experiment: HCT116 proliferation assay, WT cells (CellTiter-Glo, 6 days)
Type: cell-based
protocol conditions: Homo sapiens, HCT-116, 144 h, read-out: Prolif_HCT116-WT IC50
Protocol: HCT116 MTAP null and WT cells were seeded in 96-well tissue culture plates in RPMI 1640 media + 10% fetal bovine serum. Plates were incubated overnight at 37° C. and 5% CO2. […] Effects on cell viability were measured with the CellTiter-Glo® Luminescent Cell Viability Assay (Promega) per manufacturer’s recommendation. Assay plates were read on an EnVision™ Multilabel Reader using the Ultra-Sensitive luminescence module.
measured quantity: IC50 (nM)

compound	IC50 / nM
Cc1cc2cc(C(=O)N(Cc3ccc(C#N)cn3)[C@H](C)c3ncccc3F)c(F)cc2nc1N [Example 353]	1510
Cc1cc2cc(C(=O)N(Cc3ccc(C(F)(F)F)cn3)Cc3ncccc3F)c(F)cc2nc1N [Example 310]	1600

Hello, the source for this data is patent US20230159510A1, in case you need it.
